Taken from patent US20240366589A1.

Record form. Attribute: Prompt Human NHE3 pIC50. Fill in for each entry.
Biological target: Human NHE3 (Homo sapiens, UniProt P48764)
Construct: expressed in transfected cells; host or cells: Opossum kidney (OK) cells (ATCC), electroporation
Sequence (P48764 26-834): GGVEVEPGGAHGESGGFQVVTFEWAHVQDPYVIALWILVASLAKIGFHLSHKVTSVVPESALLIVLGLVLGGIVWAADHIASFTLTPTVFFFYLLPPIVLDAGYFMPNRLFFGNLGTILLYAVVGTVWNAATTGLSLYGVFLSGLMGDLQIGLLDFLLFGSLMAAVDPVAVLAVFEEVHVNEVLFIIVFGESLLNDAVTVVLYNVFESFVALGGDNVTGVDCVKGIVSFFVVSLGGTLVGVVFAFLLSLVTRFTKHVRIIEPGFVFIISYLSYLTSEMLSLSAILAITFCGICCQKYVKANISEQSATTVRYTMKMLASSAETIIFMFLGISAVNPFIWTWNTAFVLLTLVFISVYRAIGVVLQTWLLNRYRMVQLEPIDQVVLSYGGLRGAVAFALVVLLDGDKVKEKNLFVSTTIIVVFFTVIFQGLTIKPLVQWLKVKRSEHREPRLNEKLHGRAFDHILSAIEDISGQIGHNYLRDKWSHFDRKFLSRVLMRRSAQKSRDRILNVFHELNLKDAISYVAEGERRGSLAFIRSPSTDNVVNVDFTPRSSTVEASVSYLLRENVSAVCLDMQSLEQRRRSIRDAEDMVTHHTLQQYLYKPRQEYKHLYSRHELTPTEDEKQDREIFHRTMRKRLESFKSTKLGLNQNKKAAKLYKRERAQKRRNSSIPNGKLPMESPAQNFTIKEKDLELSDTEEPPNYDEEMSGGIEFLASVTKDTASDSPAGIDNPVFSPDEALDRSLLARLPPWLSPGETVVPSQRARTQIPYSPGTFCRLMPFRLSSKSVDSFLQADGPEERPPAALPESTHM
Assay: Cell-based NHE3 activity under prompt conditions (OK cells, BCECF pH recovery), human NHE3
Settings: prompt conditions

Recorded Prompt Human NHE3 pIC50, per entry:
CN1Cc2c(Cl)cc(Cl)cc2[C@H](c2cccc(S(=O)(=O)NCCOCCOCCNCCCC(CCC(=O)NCCOCCOCCNS(=O)(=O)c3cccc([C@@H]4CN(C)Cc5c(Cl)cc(Cl)cc54)c3)(CCC(=O)NCCOCCOCCNS(=O)(=O)c3cccc([C@@H]4CN(C)Cc5c(Cl)cc(Cl)cc54)c3)NC(=O)N3CCN(CCOCCO)CC3)c2)C1 ... 7.20
CN(CC(=O)NCCOCCOCCOCCN1CCN(c2ccc(-c3nc(NC(=N)N)nc4ccc(Cl)cc34)cc2)CC1)CC(=O)NCCOCCOCCOCCN1CCN(c2ccc(-c3c(Cl)ccc4nc(NC(=N)N)ncc34)cc2)CC1 ... 7.00
CN1Cc2c(Cl)cc(Cl)cc2[C@H](c2cccc(S(=O)(=O)NCCOCCOCCNC(=O)CCC(CCC(=O)NCCOCCOCCNS(=O)(=O)c3cccc([C@@H]4CN(C)Cc5c(Cl)cc(Cl)cc54)c3)(CCC(=O)NCCOCCOCCNS(=O)(=O)c3cccc([C@@H]4CN(C)Cc5c(Cl)cc(Cl)cc54)c3)NS(C)(=O)=O)c2)C1 ... 6.80

Prompt Human NHE3 pIC50 for "CN1Cc2c(Cl)cc(Cl)cc2[C@H](c2cccc(S(=O)(=O)NCCOCCOCCNC(=O)CCN(CCC(=O)NCCOCCOCCNS(=O)(=O)c3cccc([C@@H]4CN(C)Cc5c(Cl)cc(Cl)cc54)c3)CCC(=O)NCCOCCOCCNS(=O)(=O)c3cccc([C@@H]4CN(C)Cc5c(Cl)cc(Cl)cc54)c3)c2)C1" is 6.93
